Target Of Assay: mTOR (Homo sapiens, UniProt P42345)
Construct: purchased Invitrogen Corporation (Carlsbad/Calif., USA) PV4753
Sequence (P42345 1360-2549 limits assumed): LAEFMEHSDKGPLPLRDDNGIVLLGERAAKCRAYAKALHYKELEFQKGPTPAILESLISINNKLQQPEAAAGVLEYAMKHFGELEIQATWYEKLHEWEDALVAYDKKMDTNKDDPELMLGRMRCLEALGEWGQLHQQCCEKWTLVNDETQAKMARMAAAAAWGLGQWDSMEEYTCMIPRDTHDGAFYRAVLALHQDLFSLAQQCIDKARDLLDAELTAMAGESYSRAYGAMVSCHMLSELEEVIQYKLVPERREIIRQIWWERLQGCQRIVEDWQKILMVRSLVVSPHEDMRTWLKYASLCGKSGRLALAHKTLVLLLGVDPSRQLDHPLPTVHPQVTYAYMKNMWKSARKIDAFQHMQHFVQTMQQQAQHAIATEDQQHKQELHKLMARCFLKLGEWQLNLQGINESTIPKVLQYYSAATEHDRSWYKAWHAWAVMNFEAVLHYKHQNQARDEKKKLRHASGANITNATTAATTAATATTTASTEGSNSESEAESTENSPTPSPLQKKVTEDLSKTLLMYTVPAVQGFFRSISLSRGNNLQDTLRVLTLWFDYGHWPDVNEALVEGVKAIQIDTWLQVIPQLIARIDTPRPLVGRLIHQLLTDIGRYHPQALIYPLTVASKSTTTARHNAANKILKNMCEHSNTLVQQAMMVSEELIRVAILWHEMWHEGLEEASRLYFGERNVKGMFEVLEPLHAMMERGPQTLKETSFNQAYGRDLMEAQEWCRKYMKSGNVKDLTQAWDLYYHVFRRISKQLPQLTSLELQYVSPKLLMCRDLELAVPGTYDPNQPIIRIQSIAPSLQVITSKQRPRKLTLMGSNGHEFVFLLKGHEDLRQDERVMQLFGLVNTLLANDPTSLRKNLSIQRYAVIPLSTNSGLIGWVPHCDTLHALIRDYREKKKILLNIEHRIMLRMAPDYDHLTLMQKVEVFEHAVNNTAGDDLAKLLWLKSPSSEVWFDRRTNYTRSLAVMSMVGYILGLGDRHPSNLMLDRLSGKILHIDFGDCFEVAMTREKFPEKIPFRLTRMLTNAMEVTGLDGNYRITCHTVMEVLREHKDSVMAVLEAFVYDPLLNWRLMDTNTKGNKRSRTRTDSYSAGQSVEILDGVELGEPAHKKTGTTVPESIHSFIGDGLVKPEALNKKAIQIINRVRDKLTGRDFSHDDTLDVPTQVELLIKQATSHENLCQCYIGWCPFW
Protocol Details: Biochemical assay for m-TOR by TR-FRET
Condition Description: read-out: mTOR/IC50
Measured Property: IC50 (nM)

Completed entries (count: 3):
# Record Smiles, Data Value
rows = [
    ("CNC(=O)c1ccc(-c2ccc3ncc4c(c3c2)n(-c2ncccc2C)c(=O)n4C)cc1", 331),
    ("CCOc1ccc(-c2ccc3ncc4c(c3c2)n(-c2cccnc2OC)c(=O)n4C)cn1", 107),
    ("Cn1c(=O)n(-c2cccnc2F)c2c3cc(-c4cnc(N)c(C(F)(F)F)c4)ccc3ncc21", 15),
]

[a] Cc1cccnc1-n1c(=O)n(C)c2cnc3ccc(-c4cnc5ccccc5c4)cc3c21
[b] CNC(=O)c1ccc(-c2ccc3ncc4c(c3c2)n(-c2cccnc2C)c(=O)n4C)cc1
Ask: Just tell me: smaller IC50 value, a or b ? Choose, then provide that item's label.
Reply: b

[a] Cc1ncccc1-n1c(=O)n(C)c2cnc3ccc(-c4ccc(OCCCN(C)C)nc4)cc3c21
[b] COc1ncccc1-n1c(=O)n(C)c2cnc3ccc(-c4ccc(C(N)=O)cc4)cc3c21
Ask: Just tell me: smaller IC50 value, a or b ? Choose, then provide that item's label.
Reply: b
